B1: library; a variant is named by its letters at N, in order (parent)
chain: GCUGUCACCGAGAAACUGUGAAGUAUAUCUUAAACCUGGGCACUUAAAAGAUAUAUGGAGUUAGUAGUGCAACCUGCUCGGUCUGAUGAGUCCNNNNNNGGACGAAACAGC

variants of: B1; experiment: normalized RNA/DNA level with ligand (relative to sTRSVctl = 100) (log10 (% of sTRSVctl)); HEK293T; ligand: cyclic di-GMP (c-di-GMP-II aptamer); ligand concentration (+) RNA-Seq: 1 mM; higher = less ribozyme self-cleavage, higher mRNA level; settings: reporter: mCherry (pCS4076), ligand present: yes
parameterMeasured: normalized RNA/DNA level with ligand (log10)

Known normalized RNA/DNA level with ligand (log10) results, listed for orientation:
GCUGUCACCGAGAAACUGUGAAGUAUAUCUUAAACCUGGGCACUUAAAAGAUAUAUGGAGUUAGUAGUGCAACCUGCUCGGUCUGAUGAGUCCGCGUAGGGACGAAACAGC [GCGUAG] ... 1.8
GCUGUCACCGAGAAACUGUGAAGUAUAUCUUAAACCUGGGCACUUAAAAGAUAUAUGGAGUUAGUAGUGCAACCUGCUCGGUCUGAUGAGUCCUACACCGGACGAAACAGC [UACACC] ... 1.8
GCUGUCACCGAGAAACUGUGAAGUAUAUCUUAAACCUGGGCACUUAAAAGAUAUAUGGAGUUAGUAGUGCAACCUGCUCGGUCUGAUGAGUCCCUAUGUGGACGAAACAGC [CUAUGU] ... 1.84
GCUGUCACCGAGAAACUGUGAAGUAUAUCUUAAACCUGGGCACUUAAAAGAUAUAUGGAGUUAGUAGUGCAACCUGCUCGGUCUGAUGAGUCCGUUGAGGGACGAAACAGC [GUUGAG] ... 1.72
GCUGUCACCGAGAAACUGUGAAGUAUAUCUUAAACCUGGGCACUUAAAAGAUAUAUGGAGUUAGUAGUGCAACCUGCUCGGUCUGAUGAGUCCUGGUUAGGACGAAACAGC [UGGUUA] ... 1.85
GCUGUCACCGAGAAACUGUGAAGUAUAUCUUAAACCUGGGCACUUAAAAGAUAUAUGGAGUUAGUAGUGCAACCUGCUCGGUCUGAUGAGUCCGGCAUUGGACGAAACAGC [GGCAUU] ... 1.82

Prompt: Please give the documented normalized RNA/DNA level with ligand (log10) of GCUGUCACCGAGAAACUGUGAAGUAUAUCUUAAACCUGGGCACUUAAAAGAUAUAUGGAGUUAGUAGUGCAACCUGCUCGGUCUGAUGAGUCCGAAGGUGGACGAAACAGC [GAAGGU]
Response: 1.77

Prompt: Please give the documented normalized RNA/DNA level with ligand (log10) of GCUGUCACCGAGAAACUGUGAAGUAUAUCUUAAACCUGGGCACUUAAAAGAUAUAUGGAGUUAGUAGUGCAACCUGCUCGGUCUGAUGAGUCCGCACUUGGACGAAACAGC [GCACUU]
Response: 1.8

Prompt: Please give the documented normalized RNA/DNA level with ligand (log10) of GCUGUCACCGAGAAACUGUGAAGUAUAUCUUAAACCUGGGCACUUAAAAGAUAUAUGGAGUUAGUAGUGCAACCUGCUCGGUCUGAUGAGUCCAUACUUGGACGAAACAGC [AUACUU]
Response: 1.83

Prompt: Please give the documented normalized RNA/DNA level with ligand (log10) of GCUGUCACCGAGAAACUGUGAAGUAUAUCUUAAACCUGGGCACUUAAAAGAUAUAUGGAGUUAGUAGUGCAACCUGCUCGGUCUGAUGAGUCCUUCUCCGGACGAAACAGC [UUCUCC]
Response: 1.9

Prompt: Please give the documented normalized RNA/DNA level with ligand (log10) of GCUGUCACCGAGAAACUGUGAAGUAUAUCUUAAACCUGGGCACUUAAAAGAUAUAUGGAGUUAGUAGUGCAACCUGCUCGGUCUGAUGAGUCCUGAGUCGGACGAAACAGC [UGAGUC]
Response: 1.87

Prompt: Please give the documented normalized RNA/DNA level with ligand (log10) of GCUGUCACCGAGAAACUGUGAAGUAUAUCUUAAACCUGGGCACUUAAAAGAUAUAUGGAGUUAGUAGUGCAACCUGCUCGGUCUGAUGAGUCCCGUCCAGGACGAAACAGC [CGUCCA]
Response: 1.72

Prompt: Please give the documented normalized RNA/DNA level with ligand (log10) of GCUGUCACCGAGAAACUGUGAAGUAUAUCUUAAACCUGGGCACUUAAAAGAUAUAUGGAGUUAGUAGUGCAACCUGCUCGGUCUGAUGAGUCCUAAUGCGGACGAAACAGC [UAAUGC]
Response: 1.84

Prompt: Please give the documented normalized RNA/DNA level with ligand (log10) of GCUGUCACCGAGAAACUGUGAAGUAUAUCUUAAACCUGGGCACUUAAAAGAUAUAUGGAGUUAGUAGUGCAACCUGCUCGGUCUGAUGAGUCCGUUUGGGGACGAAACAGC [GUUUGG]
Response: 1.8

Prompt: Please give the documented normalized RNA/DNA level with ligand (log10) of GCUGUCACCGAGAAACUGUGAAGUAUAUCUUAAACCUGGGCACUUAAAAGAUAUAUGGAGUUAGUAGUGCAACCUGCUCGGUCUGAUGAGUCCUACGCCGGACGAAACAGC [UACGCC]
Response: 1.87

Prompt: Please give the documented normalized RNA/DNA level with ligand (log10) of GCUGUCACCGAGAAACUGUGAAGUAUAUCUUAAACCUGGGCACUUAAAAGAUAUAUGGAGUUAGUAGUGCAACCUGCUCGGUCUGAUGAGUCCGCUGGGGGACGAAACAGC [GCUGGG]
Response: 1.71
